System: ATP;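 note: ATP exposure 15 min at 22 °C before imaging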
EXPERIMENT: switch fluorescence ratio, 500 uM ATP over buffer (Cy3 cluster intensity, sum of 5 cycles each) (fold (ratio)); higher = stronger signal-on switching upon ATP binding; sequences stand for … in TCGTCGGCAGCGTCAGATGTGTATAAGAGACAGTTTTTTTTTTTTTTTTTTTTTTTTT…TC
DETAILS: aptamer strand: ATP DNA aptamer (quencher-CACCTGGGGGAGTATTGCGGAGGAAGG + anchor), 100 nM annealed; ATP concentration: 500 uM
Record Fulfilled whenever switch fluorescence ratio is at 1 or higher; record Not fulfilled when lower.

SEQUENCE INPUT: AGGATGGGGT
MEASURED TARGET: ATP;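 note: ATP exposure 15 min at 22 °C before imaging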
ASSIGNED CATEGORY: Not fulfilled
//
SEQUENCE INPUT: TGGGTACAGT
MEASURED TARGET: ATP;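 note: ATP exposure 15 min at 22 °C before imaging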
ASSIGNED CATEGORY: Fulfilled
//
SEQUENCE INPUT: GTTTTGGTG
MEASURED TARGET: ATP;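 note: ATP exposure 15 min at 22 °C before imaging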
ASSIGNED CATEGORY: Fulfilled

Exercise: Exam item: decide whether the reported switch fluorescence ratio for TGAGCTATAT is at least 1.
Solution: Fulfilled

Exercise: Exam item: decide whether the reported switch fluorescence ratio for TGAGTAGCGT is at least 1.
Solution: Not fulfilled

Exercise: Exam item: decide whether the reported switch fluorescence ratio for GGGCAAGGGC is at least 1.
Solution: Fulfilled

Exercise: Exam item: decide whether the reported switch fluorescence ratio for TGAGATTGC is at least 1.
Solution: Fulfilled

====

System: ATP;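 note: ATP exposure 15 min at 22 °C before imaging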
EXPERIMENT: switch fluorescence ratio, 500 uM ATP over buffer (Cy3 cluster intensity, sum of 5 cycles each) (fold (ratio)); higher = stronger signal-on switching upon ATP binding; sequences stand for … in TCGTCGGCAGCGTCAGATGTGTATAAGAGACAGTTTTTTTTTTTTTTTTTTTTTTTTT…TC
DETAILS: aptamer strand: ATP DNA aptamer (quencher-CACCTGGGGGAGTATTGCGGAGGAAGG + anchor), 100 nM annealed; ATP concentration: 500 uM
READOUT NAME: switch fluorescence ratio
Give bare numbers.

SEQUENCE INPUT: AATCAGGAAG
switch fluorescence ratio: 1.02
--
SEQUENCE INPUT: TTAAGAGATA
switch fluorescence ratio: 0.989
--
SEQUENCE INPUT: GGTTCGGGAA
switch fluorescence ratio: 0.996
--
SEQUENCE INPUT: TGCCTTGAGA
switch fluorescence ratio: 1

Give switch fluorescence ratio for each listed item.
1. TTAGGGCTAG
2. GAAGTCCGGT
3. CGGGTTGCCC
4. TTCGACGGTT
5. GGGGAAGCGC
6. CTTGAGTGTT
7. TTTGTTAAG
8. AAACCCGCCC

Solution:
[0.993, 0.955, 1, 1.03, 1.01, 0.996, 1.02, 1.81]

====

Tested on: ATP;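 note: ATP exposure 15 min at 22 °C before imaging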
EXPERIMENT: switch fluorescence ratio, 500 uM ATP over buffer (Cy3 cluster intensity, sum of 5 cycles each) (fold (ratio)); higher = stronger signal-on switching upon ATP binding; sequences stand for … in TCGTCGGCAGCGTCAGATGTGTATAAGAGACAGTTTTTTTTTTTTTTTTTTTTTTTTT…TC
DETAILS: aptamer strand: ATP DNA aptamer (quencher-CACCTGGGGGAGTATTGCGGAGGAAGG + anchor), 100 nM annealed; ATP concentration: 500 uM
READOUT NAME: switch fluorescence ratio
Numbers only.

Use these answered entries as a reference point.
SEQUENCE INPUT: CCTGGGGTAA
READOUT NAME: switch fluorescence ratio
NUMERIC RESULT: 1.09

SEQUENCE INPUT: ATTTTGTGTA
READOUT NAME: switch fluorescence ratio
NUMERIC RESULT: 1

SEQUENCE INPUT: TCAGTCGGAT
READOUT NAME: switch fluorescence ratio
NUMERIC RESULT: 0.977

SEQUENCE INPUT: AGCGGAGAGG
READOUT NAME: switch fluorescence ratio
NUMERIC RESULT: 1.01

SEQUENCE INPUT: TAGAGAATTT
READOUT NAME: switch fluorescence ratio
NUMERIC RESULT: 0.984

SEQUENCE INPUT: AGGTCTACTA
READOUT NAME: switch fluorescence ratio
NUMERIC RESULT: 1.05

SEQUENCE INPUT: CATTTGGGGG
READOUT NAME: switch fluorescence ratio
NUMERIC RESULT: 0.977

SEQUENCE INPUT: GGAGATGCGG
READOUT NAME: switch fluorescence ratio
NUMERIC RESULT: 1.02

Give switch fluorescence ratio for each listed item.
1. TAGGCTGGGC
2. AAGGGTGTAA
3. TACTTTGGGG
4. CGAGGAGGGC
5. TCCGGTTTTG
6. AAGAGATATG
7. ACGGCTTACT
8. TAGTTTTTCG

Solution:
[0.967, 1.01, 0.989, 0.974, 0.979, 1.02, 1.21, 1]

Give switch fluorescence ratio for each listed item.
1. GCCAATAGTT
2. ATGAACATTT
3. ACGGCTAGCG
4. TCAGCTGGGG

Solution:
[1.05, 1, 1.02, 0.98]
